Values compiled from ChEMBL document CHEMBL6178021.

# System: MDR1 (human)
# Protocol Text: Apparent permeability across apical to basolateral side in MDCK transfected with human MDR1 cells incubated for 1 hr by LC-MS analysis
# Experimental Parameters: dog, MDCK-MDR1
Exercise: for every item that follows, state its recorded Papp A→B at 1 h.
Answers are plain numbers, in nm/s.

Please review the following examples before continuing.
CCC1=C(CC)/C(=C/NC2CCCCC2)N=C1c1ccc(C)[nH]1 : 0.13
CCC1=C(CC)/C(=C/NC2CCCCCCC2)N=C1c1ccc(-c2ccc(OC)cc2)[nH]1 : 0.54
CCC1=C(CC)/C(=C/NC2CCCCCCC2)N=C1c1ccc(C)[nH]1 : 0.06
CCC1=C(CC)/C(=C/NC2CCCCCC2)N=C1c1ccc(CC)[nH]1 : 0.3
C[C@H]1CC[C@H](N/C=C2\N=C(c3ccc[nH]3)C3=C2CCCC3)CC1 : 2.7

Fill in Papp A→B at 1 h for each of the 2 compounds listed.
1. CCc1ccc(C2=N/C(=C\NC3CCCCCC3)C3=C2OCCO3)[nH]1
2. CCc1ccc(C2=N/C(=C\NC3CCCCCCC3)C(C)=C2C)[nH]1

Result:
1. 0.42
2. 0.22

Fill in Papp A→B at 1 h for each of the 2 compounds listed.
1. CCC1=C(CC)/C(=C/NC23C[C@H]4C[C@@H](C2)C[C@@H](C3)C4)N=C1c1ccc(CC)[nH]1
2. CCC1=C(CC)/C(=C/NC2CCCCC2)N=C1c1ccc(CC)[nH]1

Result:
310
0.02
